Where do the numbers come from? From patent US10517889B2.

# Tested on: human SMAD7 mRNA
# protocol.summary: Antisense inhibition of human SMAD7 mRNA expression in Hep3B cells by 3-10-3 cEt gapmers, 10,000 nM, electroporation (Example 2)
# Type: cell-based
# experimental.setup: Hep3B cells, electroporation with 10,000 nM antisense oligonucleotide, approximately 24 hours, SMAD7 mRNA by RT-PCR (RTS5062), relative to untreated control cells
Strand notation (5' to 3'): a small letter for the sugar, then the base; units joined by * are phosphorothioate-linked, units joined directly phosphodiester-linked; [ ] holds rarer units or linkages, { } end groups; capitals alone tell only the bases. k = constrained ethyl (cEt); [5mC] = 5-methylcytosine; d = 2'-deoxy (DNA)
Label satisfied when % Inhibition is at or above 30%; anything below gets not satisfied.

Sample answers from the record:
{"substance": "830019 (antisense kA*kG*kG*d[5mC]*d[5mC]*d[5mC]*dA*dA*d[5mC]*dA*dG*d[5mC]*d[5mC]*kA*kA*kA) [compound 830019]", "study.target": "human SMAD7 mRNA", "assigned.category": "not satisfied"}
{"substance": "800108 (antisense kG*kG*kA*dA*dT*d[5mC]*dT*dA*dG*dA*dA*dA*dA*k[5mC]*kA*k[5mC]) [compound 800108]", "study.target": "human SMAD7 mRNA", "assigned.category": "not satisfied"}
{"substance": "798684 (antisense k[5mC]*kG*kT*dT*dT*dG*d[5mC]*d[5mC]*dT*dG*d[5mC]*dT*dA*kA*kG*kG) [compound 798684]", "study.target": "human SMAD7 mRNA", "assigned.category": "satisfied"}
{"substance": "799467 (antisense kG*k[5mC]*kA*dG*dA*d[5mC]*dA*dG*dA*dA*dG*d[5mC]*dT*k[5mC]*kT*kA) [compound 799467]", "study.target": "human SMAD7 mRNA", "assigned.category": "satisfied"}
{"substance": "800040 (k[5mC]*kG*k[5mC]*d[5mC]*dA*dG*d[5mC]*dA*dA*dT*dG*dT*dG*k[5mC]*kT*kG; antisense) [compound 800040]", "study.target": "human SMAD7 mRNA", "assigned.category": "not satisfied"}
{"substance": "830152 (antisense k[5mC]*k[5mC]*k[5mC]*dG*dG*dA*dG*dA*dG*dG*dA*dA*dG*k[5mC]*k[5mC]*kT) [compound 830152]", "study.target": "human SMAD7 mRNA", "assigned.category": "not satisfied"}

Okay, next one:
### Prompt Check this substance for % Inhibition at or above 30%: 830209 (kA*k[5mC]*k[5mC]*dG*dG*dA*dA*dG*dT*d[5mC]*dT*dT*dG*kT*kA*kT; antisense) [compound 830209]
### Response satisfied

====

# System: human SMAD7 mRNA
# protocol.summary: Antisense inhibition of human SMAD7 mRNA expression in Hep3B cells by 3-10-3 cEt gapmers, 10,000 nM, electroporation (Example 2)
# Assay type: cell-based
# experimental.setup: Hep3B cells, electroporation with 10,000 nM antisense oligonucleotide, approximately 24 hours, RTS5062, percent inhibition of SMAD7 mRNA relative to untreated control cells
Strand notation (5' to 3'): a small letter for the sugar, then the base; units joined by * are phosphorothioate-linked, units joined directly phosphodiester-linked; [ ] holds rarer units or linkages, { } end groups; capitals alone tell only the bases. k = constrained ethyl (cEt); [5mC] = 5-methylcytosine; d = 2'-deoxy (DNA)
reported.metric: % Inhibition

### Prompt Find the recorded % Inhibition belonging to 799570 (kA*kA*kA*dA*dG*dA*dT*dG*d[5mC]*dA*dG*dT*dT*k[5mC]*kA*k[5mC]; antisense) [compound 799570] and report it.
### Response 39%

### Prompt Now this one: 799643 (kG*kT*kG*dA*dT*d[5mC]*d[5mC]*d[5mC]*d[5mC]*dG*dG*dA*dA*kA*kG*k[5mC]; antisense) [compound 799643]
### Response 26%

### Prompt Param item: 799808 (antisense kG*k[5mC]*kT*dG*dA*dA*dA*dG*dA*dA*dA*dG*dT*k[5mC]*k[5mC]*k[5mC]) [compound 799808]
### Response 70%

### Prompt What about 799274 (antisense kT*kT*kA*dA*dT*d[5mC]*dA*dT*dT*dA*d[5mC]*dT*d[5mC]*kG*kA*kG) [compound 799274] ?
### Response 24%

### Prompt Also need 799644 (kT*kT*k[5mC]*d[5mC]*dA*dA*d[5mC]*dA*d[5mC]*dA*dT*dG*d[5mC]*kT*k[5mC]*kT; antisense) [compound 799644] , thanks.
### Response 31%
